TARGET_OF_ASSAY: fluorescently labeled Anti-FLAG® M2 monoclonal antibody (Sigma)
METHOD_DESCRIPTION: fluorescence microarray: peptides immobilized on epoxide slide, probed with fluorescently labeled antibody
Ends that are not written are not given here.
OBSERVATION_TYPE: Mean Fluorescence Units (fluorescence units)
// no unit, no text: just the number

query: Form field: reported Mean Fluorescence Units (fluorescence units) of artificial receptor No. 15 (n=2): peptide building blocks RM MY (designed binder) peptide 1: Ac-KAGAGRGM-NHMe peptide 2: Ac-KAGAGMGY-NHMe
result: 64600

query: Consider the binder shown here: artificial receptor No. 50 (n=3): peptide building blocks RM RY MY (designed binder, not fully specified (N-terminus)) peptide 1: KAGAGRGM-NHMe peptide 2: Ac-KAGAGRGY-NHMe peptide 3: Ac-KAGAGMGY-NHMe What is its recorded Mean Fluorescence Units (fluorescence units)?
result: 54400

query: // query Mean Fluorescence Units (fluorescence units) value for entry artificial receptor No. 278 (n=5): peptide building blocks RM RY QM MY TY (designed binder, not fully specified; N-terminal acetyl (Ac-HN-); C-terminal methyl amide (-C(O)-NH-CH3)) peptide 1: KAGAGRGM peptide 2: KAGAGRGY peptide 3: KAGAGQGM peptide 4: KAGAGMGY peptide 5: KAGAGTGY
result: 65000

query: Mean Fluorescence Units (fluorescence units) lookup needed for artificial receptor No. 89 (n=3): peptide building blocks RY HM MY (designed binder) peptide 1: Ac-KAGAGRGY-NHMe peptide 2: Ac-KAGAGHGM-NHMe peptide 3: Ac-KAGAGMGY-NHMe , thanks.
result: 57200

query: Suppose we examine the binder artificial receptor No. 46 (n=3): peptide building blocks RM RY QH (designed binder, not fully specified (N-terminus)) peptide 1: KAGAGRGM-NHMe peptide 2: Ac-KAGAGRGY-NHMe peptide 3: Ac-KAGAGQGH-NHMe ; what Mean Fluorescence Units (fluorescence units) value has been reported?
result: 39500

query: Endpoint output: Mean Fluorescence Units (fluorescence units) of artificial receptor No. 61 (n=3): peptide building blocks RM QM MY (designed binder) peptide 1: Ac-KAGAGRGM-NHMe peptide 2: Ac-KAGAGQGM-NHMe peptide 3: Ac-KAGAGMGY-NHMe . Value?
result: 47800

query: Could you share which Mean Fluorescence Units (fluorescence units) value was measured for artificial receptor No. 22 (n=2): peptide building blocks RY MY (designed binder) peptide 1: Ac-KAGAGRGY-NHMe peptide 2: Ac-KAGAGMGY-NHMe ?
result: 53500

query: Data request, read-out Mean Fluorescence Units (fluorescence units), for artificial receptor No. 70 (n=3): peptide building blocks RM HM DD (designed binder, not fully specified (N-terminus)) peptide 1: KAGAGRGM-NHMe peptide 2: Ac-KAGAGHGM-NHMe peptide 3: Ac-KAGAGDGD-NHMe
result: 32500

query: Can you look up the measured Mean Fluorescence Units (fluorescence units) of artificial receptor No. 40 (n=2): peptide building blocks HM MY (designed binder) peptide 1: Ac-KAGAGHGM-NHMe peptide 2: Ac-KAGAGMGY-NHMe for me?
result: 46800

query: Reported Mean Fluorescence Units (fluorescence units) for artificial receptor No. 68 (n=3): peptide building blocks RM HM MY (designed binder, not fully specified (N-terminus)) peptide 1: KAGAGRGM-NHMe peptide 2: Ac-KAGAGHGM-NHMe peptide 3: Ac-KAGAGMGY-NHMe : what is it?
result: 34500

query: What value of Mean Fluorescence Units (fluorescence units) has been recorded for this entry: artificial receptor No. 56 (n=3): peptide building blocks RM QH MY (designed binder) peptide 1: Ac-KAGAGRGM-NHMe peptide 2: Ac-KAGAGQGH-NHMe peptide 3: Ac-KAGAGMGY-NHMe
result: 32600

query: Recorded Mean Fluorescence Units (fluorescence units) for KAGAGRGM-NHMe (not fully specified (N-terminus)) [artificial receptor No. 1 (n=1): peptide building block RM] , please?
result: 47700

query: What measured Mean Fluorescence Units (fluorescence units) goes with artificial receptor No. 71 (n=3): peptide building blocks RM MY TY (designed binder, not fully specified (N-terminus)) peptide 1: KAGAGRGM-NHMe peptide 2: Ac-KAGAGMGY-NHMe peptide 3: Ac-KAGAGTGY-NHMe ?
result: 47800

query: Sample artificial receptor No. 49 (n=3): peptide building blocks RM RY HM (designed binder, not fully specified (N-terminus)) peptide 1: KAGAGRGM-NHMe peptide 2: Ac-KAGAGRGY-NHMe peptide 3: Ac-KAGAGHGM-NHMe — what was its Mean Fluorescence Units (fluorescence units)?
result: 39800

query: Which value of Mean Fluorescence Units (fluorescence units) has been reported for artificial receptor No. 72 (n=3): peptide building blocks RM MY DD (designed binder, not fully specified (N-terminus)) peptide 1: KAGAGRGM-NHMe peptide 2: Ac-KAGAGMGY-NHMe peptide 3: Ac-KAGAGDGD-NHMe in the records?
result: 52100

query: Report Mean Fluorescence Units (fluorescence units) for artificial receptor No. 10 (n=2): peptide building blocks RM TY (designed binder, not fully specified (N-terminus)) peptide 1: KAGAGRGM-NHMe peptide 2: Ac-KAGAGTGY-NHMe please.
result: 35100
